Source: PubChem BioAssay AID1159580

testName: chemical genetic growth profiling, strain panel (AID 1159580);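 note: tested at 20 µM; growth read once vehicle control cultures reached saturation at 30 °C; 1 = growth at the plate median or of vehicle wells; lower values mean less growth of the strain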
particulars: S. cerevisiae deletion strains, growth OD, locus YGL253W, strain hxk2, stronger effect = lower value
Hit rate of the full screen: of about 5,500 compounds, about 2,000 (36%) were called active. Another 18% or so got no clear call; they are omitted. The list shows a part of the results.

{"molecule": "CCCCC(=O)N(Cc1ccc(-c2ccccc2-c2nn[nH]n2)cc1)[C@H](C(=O)O)C(C)C", "normalized growth": 0.986}
{"molecule": "c1ccc2c(c1)[nH]c1cnccc12", "normalized growth": 1.01}
{"molecule": "COc1ccc2ccc(=O)oc2c1CC=C(C)C", "normalized growth": 0.818}
{"molecule": "CC(C)=CCOc1c2occc2cc2ccc(=O)oc12", "normalized growth": 0.807}
{"molecule": "COc1ccc2c(=O)c(-c3cc4c(cc3OC)OCO4)coc2c1", "normalized growth": 1.01}
{"molecule": "CN(C)c1nc(N(C)C)nc(N(C)C)n1", "normalized growth": 0.987}
{"molecule": "CCOc1ccc(Cc2nccc3cc(OCC)c(OCC)cc23)cc1OCC", "normalized growth": 0.986}
{"molecule": "Cc1nccc2c1[nH]c1ccccc12", "normalized growth": 0.959}
{"molecule": "CCCc1nc(C(C)(C)O)c(C(=O)OCc2oc(=O)oc2C)n1Cc1ccc(-c2ccccc2-c2nn[nH]n2)cc1", "normalized growth": 0.962}
{"molecule": "N#C/C(=C\\c1ccc(O)cc1)C(=O)O", "normalized growth": 0.999}
{"molecule": "O=c1cc(-c2ccc(O)cc2)oc2cc(O[C@@H]3O[C@H](CO)[C@@H](O)[C@H](O)[C@H]3O[C@@H]3OC[C@](O)(CO)[C@H]3O)cc(O)c12", "normalized growth": 0.998}
{"molecule": "C=C1CC2C(CCC3(C)C(=O)CCC23)C2(C)C=CC(=O)C=C12 (stereo not drawn)", "normalized growth": 0.944}
{"molecule": "O=C(O)c1cccc(O)c1O", "normalized growth": 1.02}
{"molecule": "CC1(C)S[C@@H]2[C@H](NC(=O)COc3ccccc3)C(=O)N2[C@H]1C(=O)O", "normalized growth": 0.998}
{"molecule": "COc1cc2c(cc1-c1coc3c4c(c(OC)cc3c1=O)OC(C)(C)C=C4)OCO2", "normalized growth": 1.01}
{"molecule": "C[N+]1(C)C2CC[C@H]1CC(OC(=O)C(O)c1ccccc1)C2 (stereo partly drawn)", "normalized growth": 1}
{"molecule": "COc1ccc(Cc2nccc3cc(OC)c(OC)cc23)cc1OC", "normalized growth": 1.01}
{"molecule": "CNC(=O)CSP(=S)(OC)OC", "normalized growth": 1.03}
{"molecule": "CC(=O)OC1CCC23C(=O)OC45CCC(C6=CC(=O)OC6)C4(C)CCC2C5CCC3(O)C1 (stereo not drawn)", "normalized growth": 0.98}
{"molecule": "CC(C)=CCC1=C(O)c2ccccc2C(=O)C1=O", "normalized growth": 0.592}
{"molecule": "COc1cc2ccc(=O)oc2c2ccoc12", "normalized growth": 0.892}
{"molecule": "C[N+]1(C)CCc2cc3c(cc2[C@H]1C1OC(=O)c2c1ccc1c2OCO1)OCO3 (stereo partly drawn)", "normalized growth": 0.995}
{"molecule": "Cc1cccc(N(C)C(=S)Oc2ccc3ccccc3c2)c1", "normalized growth": 0.986}
{"molecule": "CCS(=O)(=O)CCn1c([N+](=O)[O-])cnc1C", "normalized growth": 0.997}
{"molecule": "O=c1[nH]c2ccccc2n1CCCN1CCC(n2c(=O)[nH]c3cc(Cl)ccc32)CC1", "normalized growth": 1.01}
{"molecule": "O=C1c2ccccc2C(=O)c2c1ccc(O)c2O", "normalized growth": 0.295}
{"molecule": "Cn1c([N+](=O)[O-])cnc1COC(N)=O", "normalized growth": 1.01}
{"molecule": "CCNc1nc(Cl)nc(NC(C)C)n1", "normalized growth": 1}
{"molecule": "COc1ccc2c(c1)[nH]c1c(C)nccc12", "normalized growth": 0.995}
{"molecule": "Cc1cc(C)nc(NS(=O)(=O)c2ccc(N)cc2)n1", "normalized growth": 0.968}
{"molecule": "NCCS", "normalized growth": 0.979}
{"molecule": "CN1CCN(C(c2ccccc2)c2ccccc2)CC1", "normalized growth": 0.985}
{"molecule": "Cc1c(N(C)CS(=O)(=O)O)c(=O)n(-c2ccccc2)n1C", "normalized growth": 1.01}
{"molecule": "C[C@]12C=CC(=O)C=C1CCC1C2C(=O)C[C@@]2(C)C1CC[C@]2(O)C(=O)CO (stereo partly drawn)", "normalized growth": 0.992}
{"molecule": "CN1Cc2c(N)cccc2C(c2ccccc2)C1 (stereo not drawn)", "normalized growth": 1}
{"molecule": "COc1cc(O)c(C)c(O)c1", "normalized growth": 1.02}
{"molecule": "COc1cc2ccc(=O)oc2cc1O", "normalized growth": 0.939}
{"molecule": "C[C@]12C=CC(=O)C=C1CCC1C2CC[C@]2(C)C(=O)CCC12 (stereo partly drawn)", "normalized growth": 0.987}
{"molecule": "CC(C)=CCC/C(C)=C/COc1ccc2ccc(=O)oc2c1", "normalized growth": 0.994}
{"molecule": "CC1(C)C=Cc2c(cc3occ(-c4ccc5c(c4)OCO5)c(=O)c3c2O)O1", "normalized growth": 0.894}
{"molecule": "CC1=C(C(=O)O)N2C(=O)[C@@H](NC(=O)[C@H](N)C3=CCC=CC3)C2SC1 (stereo partly drawn)", "normalized growth": 1.03}
{"molecule": "O=c1ccc2cc(O[C@@H]3O[C@H](CO)[C@@H](O)[C@H](O)[C@H]3O)c(O)cc2o1", "normalized growth": 0.994}
{"molecule": "Nc1ncnc2c1ncn2[C@@H]1O[C@H](CO)[C@@H](O)[C@@H]1O", "normalized growth": 1.02}
{"molecule": "C[C@H]1C(=O)O[C@@H]2CCN3CC=C(COC(=O)[C@](C)(O)[C@]1(C)O)[C@H]23", "normalized growth": 0.994}
{"molecule": "Cc1cc(O)c2c(c1O)C(=O)c1c(O)cc(C)c(O)c1C2=O", "normalized growth": 0.985}
{"molecule": "COc1cc2ccc(=O)oc2c(OC)c1OC", "normalized growth": 0.992}
{"molecule": "COc1cc(OC)c2c(=O)c(-c3ccc4c(c3)OCO4)coc2c1", "normalized growth": 0.977}
{"molecule": "COc1cc(O)c(C(C)=O)c(OC)c1", "normalized growth": 0.984}

----------
testName: chemical genetic growth profiling, strain panel (AID 1159580);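 note: tested at 20 µM; growth read once vehicle control cultures reached saturation at 30 °C; 1 = growth at the plate median or of vehicle wells; lower values mean less growth of the strain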
particulars: S. cerevisiae deletion strains, growth OD, locus YOR144C, strain elg1, stronger effect = lower value
About 2,000 (36%) of roughly 5,500 compounds were called active. About 18% were inconclusive and are not listed. The list shows a part of the results.
Below, each entry is listed alongside its reported normalized growth.

{"compound": "OCCN1CCN(CCCN2c3ccccc3Sc3ccc(Cl)cc32)CC1", "normalized growth": 1}
{"compound": "O=c1n(CCCN2CCN(c3cccc(Cl)c3)CC2)nc2ccccn12", "normalized growth": 0.996}
{"compound": "COC(=O)C1=CO[C@@H](O[C@@H]2O[C@H](CO)[C@@H](O)[C@H](O)[C@H]2O)[C@@H]2[C@@H](C)[C@@H](O)C[C@H]12", "normalized growth": 0.993}
{"compound": "COP(=S)(OC)SCn1nnc2ccccc2c1=O", "normalized growth": 0.988}
{"compound": "Cn1cnc([N+](=O)[O-])c1Sc1ncnc2nc[nH]c12", "normalized growth": 0.987}
{"compound": "CCN(CC)CCNC(=O)COc1ccc(OC)cc1", "normalized growth": 0.998}
{"compound": "CC1=C(C(=O)O)N2C(=O)[C@@H](NC(=O)[C@H](N)C3=CCC=CC3)C2SC1 (stereo partly specified)", "normalized growth": 0.995}
{"compound": "N#Cc1ccc2c(c1)N(CCCN1CCC(O)CC1)c1ccccc1S2", "normalized growth": 1.02}
{"compound": "c1ccc2c(c1)[nH]c1cnccc12", "normalized growth": 0.99}
{"compound": "CC(=O)N[C@@H](CC(=O)O)C(=O)O", "normalized growth": 1.02}
{"compound": "COc1ccc2[nH]cc(CCNC(C)=O)c2c1", "normalized growth": 1.02}

----------
testName: chemical genetic growth profiling, strain panel (AID 1159580);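 note: tested at 20 µM; growth read once vehicle control cultures reached saturation at 30 °C; 1 = growth at the plate median or of vehicle wells; lower values mean less growth of the strain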
particulars: S. cerevisiae deletion strains, growth OD, locus YPL055C, strain LGE1, stronger effect = lower value
About 2,000 (36%) of roughly 5,500 compounds were called active. Inconclusive results (about 18%) are left out. The list shows a part of the results.

{"compound": "COc1cccc2c1[C@@H]1CN(CCCCn3c(=O)[nH]c4c(sc5ncc(-c6ccccc6)nc54)c3=O)C[C@@H]1CO2", "normalized growth": 0.781}
{"compound": "CC(=O)O[C@H]1C[C@@H]2CC[C@@H]3[C@H](CC[C@@]4(C)[C@H]3C[C@H]([N+]3(C)CCCCC3)[C@@H]4OC(C)=O)[C@@]2(C)C[C@@H]1[N+]1(C)CCCCC1", "normalized growth": 0.98}
{"compound": "CCCCC(=O)O[C@H]1CCC2C3CCc4cc(O)ccc4C3CC[C@@]21C (some centres undefined)", "normalized growth": 0.959}
{"compound": "CC(=O)Oc1ccc2c(c1)CCC1C2CC[C@@]2(C)C1CC[C@@H]2OC(C)=O (some centres undefined)", "normalized growth": 0.838}
